# Assay Name: SUPPLEMENTARY: Lipophilicity (log D) Determination by high-throughput shake-flask
# Format: physicochemical
# Condition Parameters: octanol/water
Parameter Measured: logD
Lab note: record just the number, no unit beside it.

Exercise: Endpoint output: logD of COc1ccc(Cl)cc1S(=O)(=O)c1nn(CC(=O)O)c2ccc(C(=O)Nc3ccccc3)cc12 . Value?
Solution: 0.31

Exercise: Endpoint output: logD of COc1ccc(Cl)cc1S(=O)(=O)N1COCc2ccc(C(=O)Nc3ccc(C(=O)O)cc3)cc21 . Value?
Solution: 0.32

Exercise: Endpoint output: logD of O=C(O)c1cccc(-c2noc([C@H]3CCCCN3C(=O)COc3ccccc3)n2)c1 . Value?
Solution: 0.99

Exercise: Endpoint output: logD of O=C(O)Cc1csc(NC(=O)c2ccc3c(c2)N(S(=O)(=O)c2cccc(Cl)c2)CCO3)n1 . Value?
Solution: 0.37

Exercise: Endpoint output: logD of NC(=O)c1cncc(-c2noc([C@H]3COCCN3C(=O)COc3ccccc3)n2)c1 . Value?
Solution: 1.05

Exercise: Endpoint output: logD of COc1ccc(Cl)cc1S(=O)(=O)N(C)c1cc(C(=O)Nc2ccc(C(=O)O)cc2)cc2c1OCCO2 . Value?
Solution: 0.58

Exercise: Endpoint output: logD of COc1ccc(Cl)cc1S(=O)(=O)c1cn(CCCC(=O)O)c2ccc(C(=O)Nc3ccccc3)cc12 . Value?
Solution: 0.98

Exercise: Endpoint output: logD of COc1ccc(Cl)cc1S(=O)(=O)Nc1cc(C(=O)Nc2ccccc2)ccc1CCC(=O)O . Value?
Solution: 0.47

Exercise: Endpoint output: logD of CN(CCOc1ccc(CC2SC(=O)NC2=O)cc1)c1ccccn1 (configuration not stated) . Value?
Solution: 2.49

Exercise: Endpoint output: logD of Cc1nnsc1-c1noc([C@H]2CCCCN2C(=O)COc2ccccc2)n1 . Value?
Solution: 3.04

Exercise: Endpoint output: logD of COc1ccc(Cl)cc1S(=O)(=O)Nc1cc(C(=O)Nc2ccccc2)ccc1/C=C/C(=O)O . Value?
Solution: 0.36

Exercise: Endpoint output: logD of COc1ccc(Cl)cc1S(=O)(=O)N(C)c1cc(C(=O)Nc2ncc(CC(=O)O)s2)cc2c1OCO2 . Value?
Solution: -0.06

Exercise: Endpoint output: logD of O=C(O)Cc1ccc(NC(=O)c2ccc3ccn(S(=O)(=O)c4cccc(Cl)c4)c3c2)cc1 . Value?
Solution: 1.3

Exercise: Endpoint output: logD of COc1ccc(Cl)cc1S(=O)(=O)N1CCOc2ccc(C(=O)Nc3ncc(CC(=O)O)s3)cc21 . Value?
Solution: 0.05

Exercise: Endpoint output: logD of O=C(COc1ccccc1)N1CCCC[C@@H]1c1noc(-c2ccc3[nH]cnc3c2)n1 . Value?
Solution: 2.26

Exercise: Endpoint output: logD of O=C(COc1ccccc1)N1CCCC[C@@H]1c1nc(-c2cccs2)n[nH]1 . Value?
Solution: 2.96

Exercise: Endpoint output: logD of O=C(COc1ccccc1)N1CCCC[C@@H]1c1nc(-c2cccc(O)c2)no1 . Value?
Solution: 3.24

Exercise: Endpoint output: logD of O=C(O)c1ccc(NC(=O)c2cccc(S(=O)(=O)N3CCCc4ccc(C(F)(F)F)cc43)c2)cc1 . Value?
Solution: 1.93

Exercise: Endpoint output: logD of O=C(COc1ccccc1)N1CCCC[C@@H]1c1nc(-c2ccc3[nH]cnc3c2)no1 . Value?
Solution: 3.08

Exercise: Endpoint output: logD of O=C(O)c1ccc(-c2csc([C@H]3CCCCN3C(=O)COc3ccccc3)n2)cc1 . Value?
Solution: 1.09

Exercise: Endpoint output: logD of O=C(NCc1ccccc1)[C@H]1CCCCN1C(=O)COc1ccccc1 . Value?
Solution: 2.51

Exercise: Endpoint output: logD of Cn1cc(S(=O)(=O)c2cccc(Cl)c2)c2cc(C(=O)Nc3ccc(C(=O)O)cc3)ccc21 . Value?
Solution: 2.54

Exercise: Endpoint output: logD of COc1ccc(Cl)cc1S(=O)(=O)N1CCOc2c(Cl)cc(C(=O)Nc3ccc(C(=O)O)cc3)cc21 . Value?
Solution: 3.15

Exercise: Endpoint output: logD of CC1(C)NC(=O)N(c2ccc(Cl)c(-c3nc([C@H]4CCCCN4C(=O)COc4ccccc4)no3)c2)C1=O . Value?
Solution: 3.29

Exercise: Endpoint output: logD of Cc1cc(C)cc(S(=O)(=O)N2CCc3ccc(C(=O)Nc4nc(CC(=O)O)cs4)cc32)c1 . Value?
Solution: 2.37

Exercise: Endpoint output: logD of N#Cc1cncc(-c2noc([C@H]3CCCCN3C(=O)COc3ccccc3)n2)c1 . Value?
Solution: 2.49

Exercise: Endpoint output: logD of O=C(COc1ccccc1)N1CCCC[C@@H]1c1noc(-c2ccc(C(F)(F)F)nc2)n1 . Value?
Solution: 3.38

Exercise: Endpoint output: logD of COc1ccc(Cl)cc1S(=O)(=O)N1CCS(=O)(=O)c2ccc(C(=O)Nc3ccc(C(=O)O)c(Cl)c3)cc21 . Value?
Solution: -0.37

Exercise: Endpoint output: logD of COc1ccc(Cl)cc1S(=O)(=O)N1CCNc2ccc(C(=O)Nc3ccc(C(=O)O)c(F)c3)cc21 . Value?
Solution: 0.07

Exercise: Endpoint output: logD of COc1ccc(Cl)cc1S(=O)(=O)N1CCc2c(C)cc(C(=O)Nc3ccc(C(=O)O)cc3)cc21 . Value?
Solution: 2.58

Exercise: Endpoint output: logD of CN(C)C(=O)CCC(=O)Nc1cc(F)cc(-c2noc([C@H]3CCCCN3C(=O)COc3ccccc3)n2)c1 . Value?
Solution: 3.16

Exercise: Endpoint output: logD of COc1ccc(Cl)cc1S(=O)(=O)N1CCOc2c(C)cc(C(=O)Nc3nc(CC(=O)O)cs3)cc21 . Value?
Solution: 2.55

Exercise: Endpoint output: logD of COc1ccc(Cl)cc1S(=O)(=O)N1COc2ccc(C(=O)Nc3ccc(C(=O)O)c(F)c3)cc21 . Value?
Solution: 0.35

Exercise: Endpoint output: logD of COc1ccc(Cl)cc1Cc1c[nH]c2ccc(C(=O)Nc3ccc(CC(=O)O)cc3)cc12 . Value?
Solution: 0.72

Exercise: Endpoint output: logD of O=C(c1nc([C@H]2CCCCN2C(=O)COc2ccccc2)no1)N1CCC(c2ccncc2)C1 (some centres not stated) . Value?
Solution: 2.12

Exercise: Endpoint output: logD of N#Cc1ccc(-c2nc([C@H]3CCCCN3C(=O)COc3ccccc3)no2)cc1 . Value?
Solution: 3.16

src = ChEMBL document CHEMBL3431459
